# Assayed target: T1, BRD3(2), second bromodomain of BRD3 (human, UniProt Q15059 306-416)
# T1 construct: BRD3, human, second bromodomain; the crystallised construct may differ; source: E. coli BL21(DE3), purified (Ni-NTA, TEV, SEC)
# T1 sequence (Q15059 306-416): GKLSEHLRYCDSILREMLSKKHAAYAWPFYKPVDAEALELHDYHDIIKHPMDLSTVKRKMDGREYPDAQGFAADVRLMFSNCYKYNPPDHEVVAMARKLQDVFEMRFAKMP
# Assay notes: ITC; peptide (mM stock) titrated into bromodomain (about 50 μM), by the concentrations in the tables; 10 or 15°C, 50 mM HEPES pH 7.5, 150 mM NaCl; single binding site model
# Run conditions: both partners purified
Where no end group is shown, it is not given here.
Experimental readout: Kd

# return recorded Kd for entry GKAPRK(Ac)QLATKY (histone H3, human; source: synthetic peptide) [H3K18 peptide GKAPRKacQLATKY] 67.1 µM
